system: CDK2/cyclin A (Homo sapiens)
Construct: made in house; host or cells: CDK2: insect cells (baculovirus); cyclin A: E. coli, then limited proteolysis
runDescription: Inhibition of CDK2/cyclin A retinoblastoma kinase activity
Assay type: biochemical
testContext: read-out: Ki CDK 2/A
recordedMetric: Ki (nM)

As a guide, the following entries are already answered.
INSERT INTO measurements (molecule, recordedmetric, displayunit, assayresult) VALUES
  ('Cc1ccc(C(=O)c2sc(Nc3ccc4nc[nH]c4c3)nc2N)c(C)c1', 'Ki', 'nM', 145),
  ('CN(C)c1ccc(Nc2nc(N)c(C(=O)c3ccccc3[N+](=O)[O-])s2)cc1', 'Ki', 'nM', 810),
  ('Cc1ccsc1C(=O)c1sc(Nc2ccc(N3CCN(C(=O)OC(C)(C)C)CC3)cc2)nc1N', 'Ki', 'nM', 730),
  ('CC(C)(C)OC(=O)N1CCN(c2ccc(Nc3nc(N)c(C(=O)c4c(Cl)cccc4Cl)s3)cc2)CC1', 'Ki', 'nM', 1060),
  ('CC(=O)N1CCN(c2ccc(Nc3nc(N)c(C(=O)c4c(F)cccc4F)s3)cc2)CC1', 'Ki', 'nM', 216);

A = Nc1nc(Nc2ccc(N3CCSCC3)cc2)sc1C(=O)c1c(F)cccc1F
B = CN(CCC#N)c1ccc(Nc2nc(N)c(C(=O)c3c(F)cccc3F)s2)cc1
C = Cc1cccc(C)c1C(=O)c1sc(Nc2ccc(N3CCOCC3)cc2)nc1N
D = Nc1nc(Nc2ccc(S(=O)(=O)NCC3CCNCC3)cc2)sc1C(=O)c1c(F)cccc1F
E = Cc1ncsc1C(=O)c1sc(Nc2ccc(S(N)(=O)=O)cc2)nc1N
Exercise: Arrange the 5 entries by Ki so the values rise. Your reply should list the labels following the order given in the request.
Key: D, E, A, B, C
(D: 13.5 nM, E: 26 nM, A: 86 nM, B: 270 nM, C: 1710 nM)

====

system: human CDK1 (cdc2) and cyclin B (Homo sapiens)
Sequence (P06493 whole entry): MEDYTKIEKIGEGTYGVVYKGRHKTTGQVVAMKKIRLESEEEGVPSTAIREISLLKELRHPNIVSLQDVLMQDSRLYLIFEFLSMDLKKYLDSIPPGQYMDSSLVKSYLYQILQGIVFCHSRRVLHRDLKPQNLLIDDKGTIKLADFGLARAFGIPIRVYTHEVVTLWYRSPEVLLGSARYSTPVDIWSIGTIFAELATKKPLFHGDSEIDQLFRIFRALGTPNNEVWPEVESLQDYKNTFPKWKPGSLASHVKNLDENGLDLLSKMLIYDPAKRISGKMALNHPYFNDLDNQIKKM
Sequence (P14635 whole entry partner): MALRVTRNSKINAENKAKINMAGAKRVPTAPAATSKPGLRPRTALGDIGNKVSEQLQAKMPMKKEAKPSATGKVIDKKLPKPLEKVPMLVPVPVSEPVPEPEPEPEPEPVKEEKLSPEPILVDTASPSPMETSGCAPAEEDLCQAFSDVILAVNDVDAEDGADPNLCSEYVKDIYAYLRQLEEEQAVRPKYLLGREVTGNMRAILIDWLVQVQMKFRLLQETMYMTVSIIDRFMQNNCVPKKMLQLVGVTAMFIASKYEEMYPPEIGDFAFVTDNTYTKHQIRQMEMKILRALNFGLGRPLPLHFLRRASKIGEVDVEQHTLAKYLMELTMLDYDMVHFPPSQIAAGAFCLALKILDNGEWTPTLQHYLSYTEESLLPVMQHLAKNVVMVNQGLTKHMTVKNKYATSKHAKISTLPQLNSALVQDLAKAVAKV
runDescription: Inhibition of CDK1(cdc2)/cyclin B histone H1 kinase activity
testContext: read-out: Ki CDK 1/B
recordedMetric: Ki (nM)

As a guide, the following entries are already answered.
INSERT INTO measurements (compound, system, displayunit, assayresult) VALUES
  ('Cc1cc(C(=O)c2sc(Nc3ccc(S(N)(=O)=O)cc3)nc2N)c(C)s1', 'human CDK1 (cdc2) and cyclin B (Homo sapiens)', 'nM', 29),
  ('Nc1nc(Nc2ccc(N3CCOCC3)cc2)sc1C(=O)c1c(Cl)cccc1Cl', 'human CDK1 (cdc2) and cyclin B (Homo sapiens)', 'nM', 504),
  ('Nc1nc(Nc2ccc(S(N)(=O)=O)cc2)sc1C(=O)c1sc(Br)cc1Br', 'human CDK1 (cdc2) and cyclin B (Homo sapiens)', 'nM', 20),
  ('Nc1nc(Nc2ccc(N3CCSCC3)cc2)sc1C(=O)c1c(F)cccc1F', 'human CDK1 (cdc2) and cyclin B (Homo sapiens)', 'nM', 247);

P = C[C@H]1CN(c2ccc(Nc3nc(N)c(C(=O)c4c(F)cccc4F)s3)cc2)CCN1C
Q = Nc1nc(Nc2ccc(N3CCNC(=O)C3)cc2)sc1C(=O)c1c(F)cccc1F
R = CN(C)CCN(C)c1ccc(Nc2nc(N)c(C(=O)c3c(F)cccc3F)s2)cc1
Exercise: hey, can you rank those compounds up there by Ki? biggest number first please Your reply should list the labels following the order given in the request.
Key: P, R, Q
(P: 650 nM, R: 104 nM, Q: 62 nM)

A = C[C@@H]1CN(c2ccc(Nc3nc(N)c(C(=O)c4c(F)cccc4F)s3)cc2)C[C@H](C)N1
B = CCNc1nc(N)c(C(=O)c2ccccc2)s1
Exercise: Between the entries labeled A and B , whose measured Ki is lower? Output the label that corresponds to your choice.
Key: A

1 = CC(=O)N1CCN(c2ccc(Nc3nc(N)c(C(=O)c4sccc4C)s3)cc2)CC1
2 = Nc1nc(Nc2ccccc2)sc1C(=O)c1ccccn1
Exercise: Between the entries labeled 1 and 2 , whose measured Ki is lower? Output the label that corresponds to your choice.
Key: 1
(1: 720 nM, 2: 2700 nM)

1 = Nc1nc(Nc2ccc(S(N)(=O)=O)cc2)sc1C(=O)c1c(F)cccc1F
2 = Cc1ccsc1C(=O)c1sc(Nc2ccc(N3CCN(C)CC3)cc2)nc1N
Exercise: For this pair, 1 and 2 , which shows a numerically higher Ki? Output the label that corresponds to your choice.
Key: 2

A = CN1CCN(S(=O)(=O)c2ccc(Nc3nc(N)c(C(=O)c4c(F)cccc4F)s3)cc2)CC1
B = CC(=O)c1ccc(Nc2nc(N)c(C(=O)c3ccccc3[N+](=O)[O-])s2)cc1
C = Cc1ccsc1C(=O)c1sc(Nc2ccc(S(N)(=O)=O)cc2)nc1N
Exercise: hey, can you rank those compounds up there by Ki? biggest number first please Your reply should list the labels following the order given in the request.
Key: A, B, C

P = CC(=O)Nc1ccc(Cl)c(C(=O)c2sc(Nc3ccc(N4CCN(C)CC4)cc3)nc2N)c1Cl
Q = Cc1cc([N+](=O)[O-])sc1C(=O)c1sc(Nc2ccc(S(N)(=O)=O)cc2)nc1N
Exercise: For this pair, P and Q , which shows a numerically higher Ki? Output the label that corresponds to your choice.
Key: P
(P: 1310 nM, Q: 75 nM)

A = Cc1cc([N+](=O)[O-])sc1C(=O)c1sc(Nc2ccc(N3CCN(C)CC3)cc2)nc1N
B = Cc1nc2ccc(Nc3nc(N)c(C(=O)c4ccccc4[N+](=O)[O-])s3)cc2[nH]1
C = CN1CCN(c2ccc(Nc3nc(N)c(C(=O)c4c(F)cccc4F)s3)cc2)CC1
Exercise: hey, can you rank those compounds up there by Ki? biggest number first please Your reply should list the labels following the order given in the request.
Key: A, C, B

P = CN1CCN(c2ccc(Nc3nc(N)c(C(=O)c4c(Cl)cncc4Cl)s3)cc2)CC1
Q = CN(C)c1ccc(Nc2nc(N)c(C(=O)c3ccccc3[N+](=O)[O-])s2)cc1
R = CN1CCN(c2ccc(Nc3nc(N)c(C(=O)c4c(Cl)cccc4Cl)s3)cc2)CC1
S = CNS(=O)(=O)c1ccc(Nc2nc(N)c(C(=O)c3sccc3C)s2)cc1
T = NC(=O)C1CCN(c2ccc(Nc3nc(N)c(C(=O)c4c(F)cccc4F)s3)cc2)CC1
Exercise: hey, can you rank those compounds up there by Ki? biggest number first please Your reply should list the labels following the order given in the request.
Key: P, R, T, Q, S
(P: 1370 nM, R: 827 nM, T: 193 nM, Q: 90 nM, S: 28 nM)
